Tested on: Staphylococcus aureus
Assay: Antibacterial activity against methicillin-resistant Staphylococcus aureus ATCC 33591 assessed as inhibition of bacterial growth incubated for 24 hrs by broth microdilution method
Type: functional
QUANTITY MEASURED: MIC

* Br.C=C[C@]1(C)C[C@@H](OC(=O)CSc2nc(-c3cc[n+](Cc4ccc([N+](=O)[O-])o4)cc3)cs2)[C@]2(C)[C@H](C)CC[C@]3(CCC(=O)[C@H]32)[C@@H](C)[C@@H]1O | 32 µg/mL
* C=C[C@]1(C)C[C@@H](OC(=O)CSc2nc(-c3cc[n+](Cc4cc(C)cc(C)c4)cc3)cs2)[C@]2(C)[C@H](C)CC[C@]3(CCC(=O)[C@H]32)[C@@H](C)[C@@H]1O.[Br-] | 64 µg/mL

Turning now to a further record.
The value of MIC recorded for C=C[C@]1(C)C[C@@H](OC(=O)CSc2nc(-c3cc[n+](Cc4ccccc4)cc3)cs2)[C@]2(C)[C@H](C)CC[C@]3(CCC(=O)[C@H]32)[C@@H](C)[C@@H]1O.[Br-] when tested on Staphylococcus aureus reads 1 µg/mL

---

Test system: Staphylococcus aureus
Assay: Antibacterial activity against methicillin-resistant Staphylococcus aureus ATCC 33591 assessed as inhibition of bacterial growth incubated for 24 hrs by broth microdilution method
Type: functional
QUANTITY MEASURED: MIC

The examples below pair each entry with its known result.
• C=C[C@]1(C)C[C@@H](OC(=O)CSc2nc(-c3cc[n+](Cc4ccc(F)cc4)cc3)cs2)[C@]2(C)[C@H](C)CC[C@]3(CCC(=O)[C@H]32)[C@@H](C)[C@@H]1O.[Br-] = 2 µg/mL
• C=C[C@]1(C)C[C@@H](OC(=O)CSc2nnc(-c3cc[n+](Cc4ccc(C)cc4)cc3)o2)[C@]2(C)[C@H](C)CC[C@]3(CCC(=O)[C@H]32)[C@@H](C)[C@@H]1O.[Br-] = 16 µg/mL

Turning now to a further record.
The compound identified as C=C[C@]1(C)C[C@@H](OC(=O)CS[C@@H]2C[C@H]3CC[C@@H](C2)N3C)[C@]2(C)[C@H](C)CC[C@]3(CCC(=O)[C@H]32)[C@@H](C)[C@@H]1O registered its MIC at 32 µg/mL

---

System: Salmonella enterica
Experiment: Antibacterial activity against Salmonella enterica ATCC 14028 assessed as inhibition of bacterial growth incubated for 24 hrs by broth microdilution method
Type: functional
Hi! Just check whether MIC is below 2 µg/mL. Below gives yes (1), equal or above gives no (0).

Illustrative cases are given below, each with its answer.
* C=C[C@]1(C)C[C@@H](OC(=O)CSc2nc(-c3cc[n+](Cc4ccc(OC(F)(F)F)cc4)cc3)cs2)[C@]2(C)[C@H](C)CC[C@]3(CCC(=O)[C@H]32)[C@@H](C)[C@@H]1O.[Br-] | no (0)
* C=C[C@]1(C)C[C@@H](OC(=O)CSc2nc(-c3ccncc3)cs2)[C@]2(C)[C@H](C)CC[C@]3(CCC(=O)[C@H]32)[C@@H](C)[C@@H]1O | no (0)
* C=C[C@]1(C)C[C@@H](OC(=O)CSc2nc(-c3cc[n+](Cc4ccc(F)cc4)cc3)cs2)[C@]2(C)[C@H](C)CC[C@]3(CCC(=O)[C@H]32)[C@@H](C)[C@@H]1O.[Br-] | yes (1)
* C=C[C@]1(C)C[C@@H](OC(=O)CSc2nc(-c3cc[n+](Cc4ccc(OC)cc4)cc3)cs2)[C@]2(C)[C@H](C)CC[C@]3(CCC(=O)[C@H]32)[C@@H](C)[C@@H]1O.[Br-] | yes (1)
* C=C[C@]1(C)C[C@@H](OC(=O)CSc2nc(-c3cc[n+](Cc4ccc(C#N)cc4)cc3)cs2)[C@]2(C)[C@H](C)CC[C@]3(CCC(=O)[C@H]32)[C@@H](C)[C@@H]1O.[Br-] | no (0)

For the next question, use this compound.
Please let me know if Br.C=C[C@]1(C)C[C@@H](OC(=O)CSc2nc(-c3cc[n+](Cc4ccc([N+](=O)[O-])o4)cc3)cs2)[C@]2(C)[C@H](C)CC[C@]3(CCC(=O)[C@H]32)[C@@H](C)[C@@H]1O shows MIC below 2 µg/mL. no (0)

---

# Lookup of reported CC50 at 48 h keyed by entry
Test: Cytotoxicity against human A549 cells assessed as reduction in cell viability measured after 48 hrs by CCK8 assay
Format: toxicity, cell-based
Field: numeric (µM). Do not append units.

- C=C[C@]1(C)C[C@@H](OC(=O)CSC(C)(C)CNC(=O)[C@H](N)C(C)C)[C@]2(C)[C@H](C)CC[C@]3(CCC(=O)[C@H]32)[C@@H](C)[C@@H]1O: 88

Turning now to a further record.
The compound identified as C=C[C@]1(C)C[C@@H](OC(=O)CSc2nc(-c3cc[n+](Cc4ccc(OC)cc4)cc3)cs2)[C@]2(C)[C@H](C)CC[C@]3(CCC(=O)[C@H]32)[C@@H](C)[C@@H]1O.[Br-] registered its CC50 at 48 h at 87.4

---

Experiment: Cytotoxicity against human A549 cells assessed as reduction in cell viability measured after 48 hrs by CCK8 assay
Assay type: toxicity, cell-based
# Lookup of reported CC50 at 48 h keyed by entry

The molecule identified as C=C[C@]1(C)C[C@@H](OC(=O)CS[C@@H]2C[C@H]3CC[C@@H](C2)N3C)[C@]2(C)[C@H](C)CC[C@]3(CCC(=O)[C@H]32)[C@@H](C)[C@@H]1O [RETAPAMULIN] registered its CC50 at 48 h at > 100 µM

The molecule identified as Br.C=C[C@]1(C)C[C@@H](OC(=O)CSc2nc(-c3cc[n+](Cc4ccc([N+](=O)[O-])cc4)cc3)cs2)[C@]2(C)[C@H](C)CC[C@]3(CCC(=O)[C@H]32)[C@@H](C)[C@@H]1O registered its CC50 at 48 h at > 100 µM

The molecule identified as C=C[C@]1(C)C[C@@H](OC(=O)CSc2nc(-c3cc[n+](Cc4ccc(C)cc4)cc3)cs2)[C@]2(C)[C@H](C)CC[C@]3(CCC(=O)[C@H]32)[C@@H](C)[C@@H]1O.[Br-] registered its CC50 at 48 h at > 100 µM
